- assayedSystem: human acetyl-CoA carboxylase 2 (ACC2) (Homo sapiens)
- Construct: The cDNA encoding amino acids 144 to 2458 of human acetyl-CoA carboxylase 2; made in house; host or cells: Sf9 insect cells (baculovirus, pFastBac1)
- assayInfo: Acetyl-CoA carboxylase enzyme assay (malonyl-CoA formation by LC/MS/MS)
- Assay type: biochemical
- experimentalSetup: recombinant human ACC2 (aa 144-2458); read-out: IC50 ACC2
valueType: pIC50
Quick note: pIC50 values are minus log10 of concentrations in mol/L.

q: Entry C[C@@H](NC(=O)[C@H]1CC[C@H](NS(=O)(=O)c2ccc3cc(-c4ccccc4Cl)[nH]c3c2)CC1)c1ccc(F)cc1 needs its pIC50 filled in; supply it.
a: 7.77

q: Entry Cn1c(-c2ccc(F)cc2)cc2ccc(S(=O)(=O)N[C@H]3CC[C@H](C(=O)N4CCCC(C(=O)O)C4)CC3)cc21 (stereo partly drawn) needs its pIC50 filled in; supply it.
a: 6.58

q: Entry CC(C)(C)c1nnc([C@H]2CC[C@H](NS(=O)(=O)c3ccc4[nH]c(-c5ccccc5)nc4c3)CC2)o1 needs its pIC50 filled in; supply it.
a: 6.11

q: Entry CC(C)(C)c1nnc([C@H]2CC[C@H](NS(=O)(=O)c3ccc4[nH]c(-c5ccc(C(=O)O)cc5)nc4c3)CC2)o1 needs its pIC50 filled in; supply it.
a: 6.06

q: Entry C[C@@H](NC(=O)[C@H]1CC[C@H](NS(=O)(=O)c2ccc3c(c2)C(=O)NCC3)CC1)c1ccc(F)cc1 needs its pIC50 filled in; supply it.
a: 6.69

====

- assayedSystem: human acetyl-CoA carboxylase 2 (ACC2) (Homo sapiens, UniProt O00763)
- Construct: The cDNA encoding amino acids 144 to 2458 of human acetyl-CoA carboxylase 2; made in house; host or cells: Sf9 insect cells (baculovirus, pFastBac1)
- Sequence (O00763 144-2458): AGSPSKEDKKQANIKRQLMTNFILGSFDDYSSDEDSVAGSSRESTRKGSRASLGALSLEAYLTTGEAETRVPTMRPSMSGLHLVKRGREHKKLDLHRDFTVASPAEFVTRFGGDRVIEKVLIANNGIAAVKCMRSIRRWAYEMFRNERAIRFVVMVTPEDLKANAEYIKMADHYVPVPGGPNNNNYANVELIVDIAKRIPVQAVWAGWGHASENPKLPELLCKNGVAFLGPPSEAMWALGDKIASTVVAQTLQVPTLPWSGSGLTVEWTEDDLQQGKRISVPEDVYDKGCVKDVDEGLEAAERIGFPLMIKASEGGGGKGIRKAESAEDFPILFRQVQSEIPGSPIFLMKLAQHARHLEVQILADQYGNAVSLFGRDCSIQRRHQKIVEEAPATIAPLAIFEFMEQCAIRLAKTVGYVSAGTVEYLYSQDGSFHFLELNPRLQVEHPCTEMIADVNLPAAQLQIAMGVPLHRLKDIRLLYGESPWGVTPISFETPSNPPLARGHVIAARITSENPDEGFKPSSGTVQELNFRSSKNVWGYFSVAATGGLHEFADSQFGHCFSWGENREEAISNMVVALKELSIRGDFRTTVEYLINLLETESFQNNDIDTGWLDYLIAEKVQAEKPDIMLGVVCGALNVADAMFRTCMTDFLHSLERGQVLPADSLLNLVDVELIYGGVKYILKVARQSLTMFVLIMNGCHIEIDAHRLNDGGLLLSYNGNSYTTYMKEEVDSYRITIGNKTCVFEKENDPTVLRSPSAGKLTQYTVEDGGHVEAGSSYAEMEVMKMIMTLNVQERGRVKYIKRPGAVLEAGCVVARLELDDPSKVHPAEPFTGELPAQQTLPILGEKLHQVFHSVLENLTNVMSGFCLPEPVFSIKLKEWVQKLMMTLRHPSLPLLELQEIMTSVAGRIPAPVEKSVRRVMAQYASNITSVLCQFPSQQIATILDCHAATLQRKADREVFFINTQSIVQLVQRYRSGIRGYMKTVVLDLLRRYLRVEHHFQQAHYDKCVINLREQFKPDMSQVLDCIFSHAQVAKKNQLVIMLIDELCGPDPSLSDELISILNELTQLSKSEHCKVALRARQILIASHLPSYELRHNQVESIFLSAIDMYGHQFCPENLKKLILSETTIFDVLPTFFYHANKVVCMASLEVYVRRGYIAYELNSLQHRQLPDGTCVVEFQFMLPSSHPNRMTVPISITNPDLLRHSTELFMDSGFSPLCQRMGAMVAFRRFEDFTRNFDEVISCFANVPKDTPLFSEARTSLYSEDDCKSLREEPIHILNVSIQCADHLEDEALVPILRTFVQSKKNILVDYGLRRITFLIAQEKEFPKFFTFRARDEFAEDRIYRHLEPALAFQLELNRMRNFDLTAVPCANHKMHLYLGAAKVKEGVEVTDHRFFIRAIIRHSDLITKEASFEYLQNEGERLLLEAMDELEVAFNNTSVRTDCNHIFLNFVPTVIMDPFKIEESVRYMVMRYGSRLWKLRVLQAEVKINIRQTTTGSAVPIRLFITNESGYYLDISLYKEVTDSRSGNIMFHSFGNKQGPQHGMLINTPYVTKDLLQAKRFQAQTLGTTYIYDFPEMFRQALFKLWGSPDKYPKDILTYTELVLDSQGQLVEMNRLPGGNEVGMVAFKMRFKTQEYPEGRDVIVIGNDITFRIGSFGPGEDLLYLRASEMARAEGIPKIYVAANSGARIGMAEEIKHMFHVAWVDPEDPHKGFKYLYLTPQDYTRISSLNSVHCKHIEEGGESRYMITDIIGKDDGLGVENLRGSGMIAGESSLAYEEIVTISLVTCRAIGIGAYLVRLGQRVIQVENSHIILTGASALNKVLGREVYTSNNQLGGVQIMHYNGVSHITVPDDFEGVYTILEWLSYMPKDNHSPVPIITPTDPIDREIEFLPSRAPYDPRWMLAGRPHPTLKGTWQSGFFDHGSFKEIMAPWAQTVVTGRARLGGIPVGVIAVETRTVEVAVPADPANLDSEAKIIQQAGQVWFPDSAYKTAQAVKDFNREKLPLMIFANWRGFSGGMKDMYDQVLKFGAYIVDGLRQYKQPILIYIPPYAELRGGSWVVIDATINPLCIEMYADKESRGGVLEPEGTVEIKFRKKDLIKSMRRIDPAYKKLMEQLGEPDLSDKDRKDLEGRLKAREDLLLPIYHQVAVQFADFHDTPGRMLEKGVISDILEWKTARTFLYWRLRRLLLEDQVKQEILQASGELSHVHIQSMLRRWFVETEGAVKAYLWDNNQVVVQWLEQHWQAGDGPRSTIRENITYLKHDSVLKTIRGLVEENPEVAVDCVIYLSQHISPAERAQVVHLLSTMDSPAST
- assayInfo: Acetyl-CoA carboxylase enzyme assay (malonyl-CoA formation by LC/MS/MS)
- Format: biochemical
- experimentalSetup: recombinant human ACC2 (aa 144-2458); read-out: IC50 ACC2
Assign pIC50 to each entry below.
Quick note: pIC50 values are minus log10 of concentrations in mol/L.

q: Entry Cn1c(-c2ccccc2)cc2ccc(S(=O)(=O)NC3CCC(C(=O)NC4CCCCNC4=O)CC3)cc21 (stereo not drawn) needs its pIC50 filled in; supply it.
a: 7.70

q: Entry Cc1cnc2c(S(=O)(=O)N[C@H]3CC[C@H](C(=O)N[C@H](C)c4ccc(F)cc4)CC3)cccc2c1 needs its pIC50 filled in; supply it.
a: 6.17

q: Entry CC(C)OC(=O)c1ccc(NS(=O)(=O)c2ccc3[nH]c(-c4ccc(CN5CCOCC5)cc4)nc3c2)cc1 needs its pIC50 filled in; supply it.
a: 6.17

q: Entry CN1CCN(c2ccc(-c3nc4cc(S(=O)(=O)Nc5ccc(-c6nnc(C(C)(C)C)o6)cc5)ccc4[nH]3)cc2)CC1 needs its pIC50 filled in; supply it.
a: 6.38

q: Entry C[C@@H](NC(=O)[C@H]1CC[C@H](NS(=O)(=O)c2ccc3[nH]c(=O)oc3c2)CC1)c1ccc(F)cc1 needs its pIC50 filled in; supply it.
a: 6.42

q: Entry C[C@@H](NC(=O)[C@H]1CC[C@H](NC(=O)c2ccc3cc(-c4ccccc4)[nH]c3c2)CC1)c1ccc(F)cc1 needs its pIC50 filled in; supply it.
a: 4.54

q: Entry C[C@@H](NC(=O)[C@H]1CC[C@H](NS(=O)(=O)c2ccc3cc(-c4ccccc4CO)[nH]c3c2)CC1)c1ccc(F)cc1 needs its pIC50 filled in; supply it.
a: 7.96

q: Entry Cc1cc(-c2ccc3cc(S(=O)(=O)N[C@H]4CC[C@H](C(=O)N[C@H](C)c5ccc(F)cc5)CC4)ccc3n2)cc(C)n1 needs its pIC50 filled in; supply it.
a: 7.82

q: Entry C[C@@H](NC(=O)[C@H]1CC[C@H](NS(=O)(=O)c2ccc3nc(O)ccc3c2)CC1)c1ccc(F)cc1 needs its pIC50 filled in; supply it.
a: 6.71

q: Entry C[C@@H](NC(=O)[C@H]1CC[C@H](NS(=O)(=O)c2ccc3nc(N4CCOCC4)ccc3c2)CC1)c1ccc(F)cc1 needs its pIC50 filled in; supply it.
a: 7.02

q: Entry CC(O)Cc1cc2ccc(S(=O)(=O)N[C@H]3CC[C@H](C(=O)N[C@H](C)c4ccc(F)cc4)CC3)cc2[nH]1 (stereo partly drawn) needs its pIC50 filled in; supply it.
a: 6.96

q: Entry O=S(=O)(Nc1ccc(-c2nnc(C3CCCCC3)o2)cc1)c1ccc2nc(-c3ccccc3)[nH]c2c1 needs its pIC50 filled in; supply it.
a: 4.49

q: Entry CCNC(=O)N1CCNc2ccc(S(=O)(=O)N[C@H]3CC[C@H](C(=O)N[C@H](C)c4ccc(F)cc4)CC3)cc21 needs its pIC50 filled in; supply it.
a: 6.89

q: Entry CC(C)OC(=O)c1ccc(NS(=O)(=O)c2ccc3[nH]c(Nc4ccc(N5CCOCC5)nc4)nc3c2)cc1 needs its pIC50 filled in; supply it.
a: 6.66

q: Entry CCOC(=O)C1CCCCN1C(=O)[C@H]1CC[C@H](NS(=O)(=O)c2ccc3cc(-c4ccc(COC)cc4)[nH]c3c2)CC1 (stereo partly drawn) needs its pIC50 filled in; supply it.
a: 6.59

q: Entry O=C([C@H]1CC[C@H](NS(=O)(=O)c2ccc3[nH]c(-c4ccccc4)nc3c2)CC1)N1CCN(c2ccccc2)CC1 needs its pIC50 filled in; supply it.
a: 6.00

q: Entry COC(=O)CCc1ccc(-c2cc3ccc(S(=O)(=O)N[C@H]4CC[C@H](C(=O)N5CCCC5C(C)(C)C)CC4)cc3n2C)cc1 (stereo partly drawn) needs its pIC50 filled in; supply it.
a: 7.82

q: Entry CC(C)OC(=O)c1ccc(NS(=O)(=O)c2ccc3[nH]c(Nc4cccc(Cl)c4)nc3c2)cc1 needs its pIC50 filled in; supply it.
a: 6.43

q: Entry O=C([C@H]1CC[C@H](NS(=O)(=O)c2cnc3c(c2)NCCN3)CC1)N1CCOCC1c1ccccc1 (stereo partly drawn) needs its pIC50 filled in; supply it.
a: 6.68

q: Entry CC(C)OC(=O)c1ccc(NS(=O)(=O)c2ccc3nc(-c4ccc(N(C)C)cc4)[nH]c3c2)cc1 needs its pIC50 filled in; supply it.
a: 5.86

q: Entry CC1(C)CN(C(=O)[C@H]2CC[C@H](NS(=O)(=O)c3ccc4c(Cl)c(-c5ccccc5)[nH]c4c3)CC2)CCO1 needs its pIC50 filled in; supply it.
a: 7.05

q: Entry CC(NC(=O)[C@H]1CC[C@H](NS(=O)(=O)c2ccc3c(c2)N(C)CCC3)CC1)c1cccnc1 (stereo partly drawn) needs its pIC50 filled in; supply it.
a: 7.10

q: Entry CCOc1ccc2cc(S(=O)(=O)N[C@H]3CC[C@H](C(=O)N[C@H](COC(=O)[C@@H](N)Cc4ccccc4)c4ccccc4)CC3)ccc2n1 needs its pIC50 filled in; supply it.
a: 7.41

====

- assayedSystem: human acetyl-CoA carboxylase 2 (ACC2) (Homo sapiens)
- Construct: The cDNA encoding amino acids 144 to 2458 of human acetyl-CoA carboxylase 2; made in house; host or cells: Sf9 insect cells (baculovirus, pFastBac1)
- assayInfo: Acetyl-CoA carboxylase enzyme assay (malonyl-CoA formation by LC/MS/MS)
- Type: biochemical
- experimentalSetup: recombinant human ACC2 (aa 144-2458); read-out: IC50 ACC2
valueType: pIC50
Quick note: pIC50 values are minus log10 of concentrations in mol/L.

q: Entry COC(=O)C12CC3CC(C1)C(NS(=O)(=O)c1ccc4oc5ccccc5c4c1)C(C3)C2 (stereo not shown) needs its pIC50 filled in; supply it.
a: 6.16

q: Entry C[C@@H](NC(=O)[C@H]1CC[C@H](NS(=O)(=O)c2ccc3nc(-c4ccccc4)ccc3c2)CC1)c1ccc(F)cc1 needs its pIC50 filled in; supply it.
a: 7.70

q: Entry CC(C)[C@@H](C)NC(=O)[C@H]1CC[C@H](NS(=O)(=O)c2ccc3[nH]c(-c4cccnc4)cc3c2)CC1 needs its pIC50 filled in; supply it.
a: 6.63

q: Entry C[C@@H](NC(=O)[C@H]1CC[C@H](NS(=O)(=O)c2ccc3cc(-c4ccccc4C(F)(F)F)[nH]c3c2)CC1)c1ccc(F)cc1 needs its pIC50 filled in; supply it.
a: 6.92

q: Entry COC(=O)CCc1ccc(-c2cc3ccc(S(=O)(=O)N[C@H]4CC[C@H](C(=O)N5CCCC5c5ccc(F)cc5)CC4)cc3n2C)cc1 (stereo partly shown) needs its pIC50 filled in; supply it.
a: 7.60

q: Entry CCOC(=O)c1cccc(-c2nc3ccc(S(=O)(=O)N[C@H]4CC[C@H](C(=O)N[C@H](C)c5ccccc5)CC4)cc3[nH]2)c1 needs its pIC50 filled in; supply it.
a: 7.72

All figures here come from patent US8697739B2.
